Recorded GI50 for the following molecules
# Tested on: SR leukemia
# method summary: NCI tumour cell line growth inhibition, 48 h

[
  {
    "molecule": "COc1ccc(C2C(c3ccccc3)C(=O)N2c2cc(OC)c(OC)c(OC)c2)cc1I (centres undefined)",
    "GI50": "0.286 µM"
  },
  {
    "molecule": "Cc1c2ncccc2nc2[nH]c3ccc(OCCN(C)C)cc3c12",
    "GI50": "0.734 µM"
  },
  {
    "molecule": "CN1CCN(Cc2ccc(NC(=O)c3[nH]ncc3Nc3ncnc4sccc34)cc2)CC1",
    "GI50": "0.219 µM"
  },
  {
    "molecule": "CN(C)CCOc1nc2c3cccnc3cc(-c3cccc(Cl)c3)c2c2ncccc12",
    "GI50": "0.371 µM"
  },
  {
    "molecule": "Oc1ccc(Br)cc1/C=N/NC(=S)NC12CC3CC(CC(C3)C1)C2",
    "GI50": "0.682 µM"
  },
  {
    "molecule": "O=C(O)c1ccc(-c2ccc(C(=O)O)cc2I)c(I)c1",
    "GI50": "> 100 µM"
  },
  {
    "molecule": "COc1cc(-c2nn(C(=O)NS(=O)(=O)c3ccc(C)cc3)cc2-c2ccncc2)ccc1Cl",
    "GI50": "5.1 µM"
  },
  {
    "molecule": "CCN(Cc1nc2cc(C(F)(F)F)ccc2nc1-c1ccccc1)c1ccc(OC)c(OC)c1",
    "GI50": "7.61 µM"
  }
]

Next molecule, please.
Give the measured GI50 of CCCCCCCCCCCCOC1C(C(COC2OC(C(O)CN3CCCCC3)C3OC(C)(C)OC23)NC(=O)Nc2ccccc2)OC2OC(C)(C)OC21 (centres undefined) . 1.91 µM
